target.desc: T1, human CD7 on cells (human, UniProt P09564 26-240)
T1 construct: whole, on cells; Target of the FACS and cell capture values and of the kill assays on CD7 single positive cells; also called CD7+ cells; Jurkat (CD33-/CD7+)
T1 sequence (looked up): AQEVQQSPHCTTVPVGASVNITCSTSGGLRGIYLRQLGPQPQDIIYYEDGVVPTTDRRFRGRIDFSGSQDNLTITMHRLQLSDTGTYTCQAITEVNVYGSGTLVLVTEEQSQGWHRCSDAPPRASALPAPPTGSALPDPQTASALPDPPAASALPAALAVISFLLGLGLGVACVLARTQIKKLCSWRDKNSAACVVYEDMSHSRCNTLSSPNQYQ
protocol.notes: FACS; cells not named
test.readout: FACS binding
Give the figure only, with no unit attached.

binder: CD7-PP-2 CD7 binding arm (Fab, V domains shown, Heavy chain Arg57Gly) VH: QVQLQESGAELVKPGASVKLSCKASGYTFTSYWMHWVKQRPGQGLEWIGKINPSNGGTNYNEKFKSKATLTVDKSSSTAYMQLSSLTSEDSAVYYCARGGVYYDLYYYALDYWGQGTTVTVSS VL: DIELTQSPATLSVTPGDSVSLSCRASQSISNNLHWYQQKSHESPRLLIKSASQSISGIPSRFSGSGSGTDFTLSINSVETEDFGMYFCQQSNSWPYTFGGGTKLEIKR
FACS binding: 34.6

We next turn to a different binder, shown below.
In plain terms, CD7-PP-12 CD7 binding arm (Fab, V domains shown, Light chain Gln27Ala) VH: QVQLQESGAELVKPGASVKLSCKASGYTFTSYWMHWVKQRPGQGLEWIGKINPSNGRTNYNEKFKSKATLTVDKSSSTAYMQLSSLTSEDSAVYYCARGGVYYDLYYYALDYWGQGTTVTVSS VL: DIELTQSPATLSVTPGDSVSLSCRASASISNNLHWYQQKSHESPRLLIKSASQSISGIPSRFSGSGSGTDFTLSINSVETEDFGMYFCQQSNSWPYTFGGGTKLEIKR has a documented FACS binding of 0.002
